Biological target: Type-1 angiotensin II receptor (Oryctolagus cuniculus)
Sequence (P34976 whole entry): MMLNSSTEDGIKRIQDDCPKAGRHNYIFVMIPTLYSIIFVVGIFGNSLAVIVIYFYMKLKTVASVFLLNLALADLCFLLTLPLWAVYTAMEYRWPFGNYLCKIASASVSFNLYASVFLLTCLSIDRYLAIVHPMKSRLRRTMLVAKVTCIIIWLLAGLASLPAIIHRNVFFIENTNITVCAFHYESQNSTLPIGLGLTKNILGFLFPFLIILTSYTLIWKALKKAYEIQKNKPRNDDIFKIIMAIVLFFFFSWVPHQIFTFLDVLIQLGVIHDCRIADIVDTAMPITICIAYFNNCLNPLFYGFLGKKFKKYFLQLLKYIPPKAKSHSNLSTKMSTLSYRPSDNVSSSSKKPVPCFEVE
pIC50: −log10 of the molar value.
REPORTED PROPERTY: pIC50

Solved cases below.
In [3]: df
Out[3]:
                                smiles_text  assay_value
0  CCCN(C(=O)c1ccc(F)cc1)c1ccc2ncn(Cc3ccc(-c4ccccc4-c4nnnn4C)cc3)c(=O)c2c1         8.72
1  CCCCCN(C(=O)c1ccccc1)c1ccc2ncn(Cc3ccc(-c4ccccc4-c4nnnn4C)cc3)c(=O)c2c1         8.77
2  CCCCCN(C(=O)c1ccc(SC)cc1)c1ccc2ncn(Cc3ccc(-c4ccccc4-c4nnnn4C)cc3)c(=O)c2c1         8.19

1: Cn1nnnc1-c1ccccc1-c1ccc(Cn2cnc3ccc(N(Cc4ccccn4)C(=O)c4ccccc4)cc3c2=O)cc1
2: Cn1nnnc1-c1ccccc1-c1ccc(Cn2cnc3ccc(N(CCCCO)C(=O)c4ccccc4)cc3c2=O)cc1
3: CCCCCN(Cc1ccccc1)c1ccc2ncn(Cc3ccc(-c4ccccc4-c4nnnn4C)cc3)c(=O)c2c1
4: CC(=O)OCCCCN(C(=O)c1ccccc1)c1ccc2ncn(Cc3ccc(-c4ccccc4-c4nnnn4C)cc3)c(=O)c2c1
(Q) Arrange the 4 compounds from largest to smallest pIC50. Reply: labels, ordered per the request.
(A) 4, 2, 1, 3

P: CCCCCN(C(=O)c1ccc(S(C)(=O)=O)cc1)c1ccc2ncn(Cc3ccc(-c4ccccc4-c4nnnn4C)cc3)c(=O)c2c1
Q: COC(=O)c1ccc(CN(C(=O)c2ccccc2)c2ccc3ncn(Cc4ccc(-c5ccccc5-c5nnnn5C)cc4)c(=O)c3c2)cc1
R: CCCCC(=O)N(Cc1ccccc1)c1ccc2ncn(Cc3ccc(-c4ccccc4-c4nnnn4C)cc3)c(=O)c2c1
(Q) Arrange the 3 compounds from largest to smallest pIC50. Reply: labels, ordered per the request.
(A) R, Q, P
(R: 8.62, Q: 8.41, P: 8.14)

###

Protein target, amino acids: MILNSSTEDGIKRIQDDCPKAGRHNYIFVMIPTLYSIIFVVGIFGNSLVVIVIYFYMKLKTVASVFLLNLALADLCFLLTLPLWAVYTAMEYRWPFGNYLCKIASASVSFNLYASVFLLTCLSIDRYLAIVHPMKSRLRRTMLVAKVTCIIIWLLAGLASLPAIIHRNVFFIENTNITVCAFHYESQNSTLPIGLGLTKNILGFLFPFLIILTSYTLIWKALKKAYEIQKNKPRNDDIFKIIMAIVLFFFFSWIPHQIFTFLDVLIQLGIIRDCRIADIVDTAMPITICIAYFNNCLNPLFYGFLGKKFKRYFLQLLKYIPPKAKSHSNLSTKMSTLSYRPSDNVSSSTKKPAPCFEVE
REPORTED PROPERTY: IC50 (nM)

Solved cases below.
>>> df
                                smiles_text  assay_value
0  CCCCCN(C(=O)c1ccccc1)c1ccc2ncn(Cc3ccc(-c4ccccc4-c4nnnn4C)cc3)c(=O)c2c1          6.9
1  Cn1nnnc1-c1ccccc1-c1ccc(Cn2cnc3ccc(N(Cc4ccccn4)C(=O)c4ccncc4)cc3c2=O)cc1          4.4

A: Cn1nnnc1-c1ccccc1-c1ccc(Cn2cnc3ccc(N(Cc4ccc(O)cc4)C(=O)c4ccccc4)cc3c2=O)cc1
B: CCCCN(C(=O)c1ccc(OP(=O)([O-])[O-])cc1)c1ccc2ncn(Cc3ccc(-c4ccccc4-c4nnnn4C)cc3)c(=O)c2c1.[Na+].[Na+]
(Q) // returns A or B , whichever has the lower IC50 Return value: the label identifying the chosen record.
(A) A

###

Target sequence: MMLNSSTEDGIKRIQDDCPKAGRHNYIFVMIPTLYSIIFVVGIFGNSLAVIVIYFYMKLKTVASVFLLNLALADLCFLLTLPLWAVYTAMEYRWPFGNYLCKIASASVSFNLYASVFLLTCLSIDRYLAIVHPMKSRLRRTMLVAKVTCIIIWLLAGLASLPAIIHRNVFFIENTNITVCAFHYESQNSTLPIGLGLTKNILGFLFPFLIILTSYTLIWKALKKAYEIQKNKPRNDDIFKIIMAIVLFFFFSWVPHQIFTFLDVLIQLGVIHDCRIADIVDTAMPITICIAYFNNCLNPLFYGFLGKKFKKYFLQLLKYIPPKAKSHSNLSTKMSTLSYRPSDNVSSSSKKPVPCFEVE
pIC50: −log10 of the molar value.
REPORTED PROPERTY: pIC50

>>> df
                                smiles_text  assay_value
0  CCCCCN(C(=O)c1ccco1)c1ccc2ncn(Cc3ccc(-c4ccccc4-c4nnnn4C)cc3)c(=O)c2c1         8.49

I: Cn1nnnc1-c1ccccc1-c1ccc(Cn2cnc3ccc(N(CCCC(=O)O)C(=O)c4ccccc4)cc3c2=O)cc1
II: CCCCCN(C(=O)c1cccnc1)c1ccc2ncn(Cc3ccc(-c4ccccc4-c4nnnn4C)cc3)c(=O)c2c1
III: CCCCN(C(=O)c1ccc(O)cc1)c1ccc2ncn(Cc3ccc(-c4ccccc4-c4nnnn4C)cc3)c(=O)c2c1
(Q) Arrange the 3 molecules from largest to smallest pIC50. Reply: labels, ordered per the request.
(A) III, II, I
(III: 8.92, II: 8.35, I: 8.02)

###

Test: physchem
Settings: octanol/water
Description: Partition coefficient (logP)
REPORTED PROPERTY: logP

>>> print(df.to_string())
                                   molecule  assay_value
0  Cn1nnnc1-c1ccccc1-c1ccc(Cn2cnc3ccc(N(Cc4ccccn4)C(=O)c4ccco4)cc3c2=O)cc1          3.2
1  CCCCCN(C(=O)c1ccncc1)c1ccc2ncn(Cc3ccc(-c4ccccc4-c4nnnn4C)cc3)c(=O)c2c1          4.3
2  COC(=O)c1ccc(CN(C(=O)c2ccccc2)c2ccc3ncn(Cc4ccc(-c5ccccc5-c5nnnn5C)cc4)c(=O)c3c2)cc1          4.4
3  CCCCCN(C(=O)c1ccc([S+](C)[O-])cc1)c1ccc2ncn(Cc3ccc(-c4ccccc4-c4nnnn4C)cc3)c(=O)c2c1 (configuration not stated)          4.3
4  Cn1nnnc1-c1ccccc1-c1ccc(Cn2cnc3ccc(N(Cc4ccccc4)C(=O)c4ccncc4)cc3c2=O)cc1          3.7
5  Cn1nnnc1-c1ccccc1-c1ccc(Cn2cnc3ccc(N(Cc4cccnc4)C(=O)c4ccccc4)cc3c2=O)cc1          3.4

###

Target: Angiotensin II receptor (AT-1) type-1 (Rattus norvegicus, UniProt P29089+P25095)
Assay: Binding affinity against AT1 receptor in rat adrenal tissue
Format: tissue-based
REPORTED PROPERTY: IC50 (nM)

Solved cases below.
                                smiles_text                           subject_of_test  reported_property  assay_value
0  Cn1nnnc1-c1ccccc1-c1ccc(Cn2cnc3ccc(N(Cc4ccccc4)C(=O)c4ccccc4)cc3c2=O)cc1  Angiotensin II receptor (AT-1) type-1 (Rattus norvegicus, UniProt P29089+P25095)               IC50          0.6
1  Cn1nnnc1-c1ccccc1-c1ccc(Cn2cnc3ccc(N(Cc4ccc(O)cc4)C(=O)c4ccccc4)cc3c2=O)cc1  Angiotensin II receptor (AT-1) type-1 (Rattus norvegicus, UniProt P29089+P25095)               IC50          0.5
2  Cn1nnnc1-c1ccccc1-c1ccc(Cn2cnc3ccc(N(Cc4ccccn4)C(=O)c4ccncc4)cc3c2=O)cc1  Angiotensin II receptor (AT-1) type-1 (Rattus norvegicus, UniProt P29089+P25095)               IC50          2.9
3  CCCCCN(C(=O)c1ccc(O)cc1)c1ccc2ncn(Cc3ccc(-c4ccccc4-c4nnnn4C)cc3)c(=O)c2c1  Angiotensin II receptor (AT-1) type-1 (Rattus norvegicus, UniProt P29089+P25095)               IC50          0.5
4  Cn1nnnc1-c1ccccc1-c1ccc(Cn2cnc3ccc(N(Cc4ccccn4)C(=O)c4ccccc4)cc3c2=O)cc1  Angiotensin II receptor (AT-1) type-1 (Rattus norvegicus, UniProt P29089+P25095)               IC50          1.3

I: Cn1nnnc1-c1ccccc1-c1ccc(Cn2cnc3ccc(N(Cc4cccnc4)C(=O)c4ccccc4)cc3c2=O)cc1
II: COC(=O)c1ccc(CN(C(=O)c2ccccc2)c2ccc3ncn(Cc4ccc(-c5ccccc5-c5nnnn5C)cc4)c(=O)c3c2)cc1
III: Cn1nnnc1-c1ccccc1-c1ccc(Cn2cnc3ccc(N(Cc4ccccn4)C(=O)c4ccco4)cc3c2=O)cc1
(Q) // smallest IC50 at index 0, largest at the end Reply: labels, ordered per the request.
(A) I, II, III
(I: 0.3 nM, II: 0.8 nM, III: 2.1 nM)

A: CCCCN(C(=O)c1ccc(O)cc1)c1ccc2ncn(Cc3ccc(-c4ccccc4-c4nnnn4C)cc3)c(=O)c2c1
B: CCCCN(C(=O)c1ccc(OP(=O)([O-])[O-])cc1)c1ccc2ncn(Cc3ccc(-c4ccccc4-c4nnnn4C)cc3)c(=O)c2c1.[Na+].[Na+]
(Q) // returns A or B , whichever has the lower IC50 Return value: the label identifying the chosen record.
(A) A
